experiment: Permeability of the compound by PAMPA; format: physicochemical; settings: read-out: permeability
Field: class. Source value: Papp. Ranges: low band: < 200 ×10⁻⁶ cm/s; middle band: ≥ 200 ×10⁻⁶ cm/s and < 400 ×10⁻⁶ cm/s; high band: ≥ 400 ×10⁻⁶ cm/s

Quick check: band for Cc1oc(-c2ccc(Cl)c(Cl)c2)nc1CN1CCC(C(=O)NCCCN2C[C@H](C)C[C@H](C)C2)CC1 high band

Quick check: band for Cc1cccc(Cl)c1-c1nc(CN2CCC(C(=O)NCCCN3CCCC(C)C3)CC2)c(C)o1 (racemic) high band

Quick check: band for Cc1ccccc1-c1nc(CN2CCC(C(=O)NCCCN3CCCC(CC(C)C)C3)CC2)c(C)o1 (racemic) low band

Quick check: band for Cc1ccc(-c2nc(CN3CCC(C(=O)NCCCN4C[C@H](C)C[C@H](C)C4)CC3)c(C)o2)c(C)c1 middle band

Quick check: band for Cc1ccccc1-c1nc(CN2CCC(C(=O)N3CCN(CCN(C)C)CC3)CC2)c(C)o1 low band

Quick check: band for CCCN(CCC)CCNC(=O)C1CCN(Cc2nc(-c3ccccc3C)oc2C)CC1 high band

Quick check: band for Cc1cc(-c2nc(CN3CCC(C(=O)NCCCN4C[C@H](C)C[C@H](C)C4)CC3)co2)ccc1F middle band

Quick check: band for Cc1ccccc1-c1nc(CN2CCC(C(=O)NCCCN3[C@H](C)CCC[C@@H]3C)CC2)c(C)o1 low band

Quick check: band for Cc1oc(-c2c(F)cccc2F)nc1CN1CCC(C(=O)NCCCN2C[C@H](C)C[C@H](C)C2)CC1 low band

Quick check: band for Cc1ccccc1-c1nc(CN2CCC(C(=O)NCCCN3CCC(C)CC3)CC2)c(C)o1 high band

---
Quick check: band for Cc1ccc(-c2nc(CN3CCC(C(=O)NCCCN4C[C@H](C)C[C@H](C)C4)CC3)c(C)o2)cc1C middle band

Quick check: band for Cc1cc(C)cc(-c2nc(CN3CCC(C(=O)NCCCN4C[C@H](C)C[C@H](C)C4)CC3)c(C)o2)c1 high band

Quick check: band for COc1cccc(Cl)c1-c1nc(CN2CCC(C(=O)NCCCN3C[C@H](C)C[C@H](C)C3)CC2)c(C)o1 low band

Quick check: band for Cc1ccccc1-c1nc(CN2CCC(C(=O)N3CCN(C4CCN(C)CC4)CC3)CC2)c(C)o1 low band

Quick check: band for CCc1ccccc1-c1nc(CN2CCC(C(=O)NCCCN3C[C@H](C)C[C@H](C)C3)CC2)c(C)o1 low band

Quick check: band for Cc1ccccc1-c1nc(CN2CCC(C(=O)NCCN3C[C@H](C)C[C@H](C)C3)CC2)c(C)o1 high band

Quick check: band for Cc1oc(-c2ccccc2Cl)nc1CN1CCC(C(=O)NCCCN2C[C@H](C)C[C@H](C)C2)CC1 middle band

---

assay: Kinetic solubility of the compound in pH 7.4 phosphate buffer; type: physicochemical; conditions: read-out: Kinetic_solubility
Documented solubility kinetic across a set of compounds

As a guide, the following entries are already answered.
Value of measured solubility kinetic for the entry Cc1cc(-c2nc(CN3CCC(C(=O)NCCCN4CCC(C(C)C)CC4)CC3)co2)ccc1F : > 72 µg/mL

Value of measured solubility kinetic for the entry Cc1cccc(-c2nc(CN3CCC(C(=O)NCCCN4C[C@H](C)C[C@H](C)C4)CC3)c(C)o2)c1 : > 69 µg/mL

Value of measured solubility kinetic for the entry Cc1oc(-c2c(Cl)cccc2Br)nc1CN1CCC(C(=O)NCCCN2C[C@H](C)C[C@H](C)C2)CC1 : > 83 µg/mL

---
Value of measured solubility kinetic for the entry Cc1ccccc1-c1nc(CN2CCC(C(=O)NCCCN3C[C@H](C)C[C@@H](C)C3)CC2)c(C)o1 (racemic) : > 69 µg/mL
